tested on: SF-268 CNS; experiment: NCI tumour cell line growth inhibition, 48 h
valueKind: TGI

| compound | valueKind | valueObserved |
| --- | --- | --- |
| Nc1nc(SCc2ccccc2Cl)c2ncn(C3OC(CO)C(O)C3O)c2n1 (centres undefined) | TGI | > 100 µM |
| Cc1c(Cl)ccc2c1NC(=O)C2(O)CC(=O)c1ccc(Cl)cc1 (centres undefined) | TGI | > 100 µM |
| CCOC(=O)c1ccc(N(CCOS(C)(=O)=O)CCOS(C)(=O)=O)cc1 | TGI | > 100 µM |
| O=c1ccc(N=Nc2ccccc2)ccc1O | TGI | > 100 µM |
| COC(=O)c1ccccc1C1CN=NC12Cc1ccc(C)cc1C2=O (centres undefined) | TGI | > 100 µM |
| O=[N+]([O-])c1ccccc1N=Nc1c(O)[nH]c2c(Cl)cccc12 | TGI | 59.8 µM |
| Clc1ccc(C=Nc2ccc(-c3nc4ccccc4[nH]3)cc2)cc1 | TGI | > 100 µM |
| Cc1cc(NCCCCCCCNc2cc(C)nc3cc(N)ccc23)c2ccc(N)cc2n1 | TGI | > 100 µM |
| S=C(NCc1ccccn1)N/N=C/c1ccccn1 | TGI | > 100 µM |
| COCN1C(=O)[C@@H]2CCCN2C(=O)c2ccc(N)cc21 | TGI | > 100 µM |
| Nc1nc(Sc2ccc([N+](=O)[O-])c3nonc23)c2[nH]cnc2n1 | TGI | 18 µM |
| Cc1sc(/N=C/C2=C(O)CC(C)(C)CC2=O)nc1-c1ccccc1 | TGI | > 100 µM |
| COC1C(OC(=O)c2ccc(C)[nH]2)C(O)C(Oc2ccc3c(O)c(NC(=O)c4ccc(O)c(CC=C(C)C)c4)c(=O)oc3c2Cl)OC1(C)C (centres undefined) | TGI | 57.4 µM |
| CC[C@H](C)[C@H](NC(=O)C12C3C4C1C1C2C3C41NC)C(=O)N(C)[C@H](C[C@@H](OC(C)=O)c1nc(C(=O)N[C@@H](Cc2ccccc2)C[C@H](C)C(=O)OC)cs1)C(C)C (some centres undefined) | TGI | > 14.3 µM |
| CCCCCCCCCCCC1N=C(N)N=C(N)N1c1cccc(Br)c1 (centres undefined) | TGI | 2.7 µM |
| Nc1ccc(CC[C@H]2CCC/C=C/[C@@H]3C[C@H](O)C[C@H]3[C@H](O)/C=C/C(=O)O2)cc1 | TGI | > 100 µM |
| CC1CC(=O)N(N(C)C)C2(C#N)C(=O)N=C(N)C12C#N (centres undefined) | TGI | > 100 µM |
| C=CCNC(=S)NNC(=O)c1c(C)nc2sccn12 | TGI | > 100 µM |
| Cc1cc(N(CCC#N)CCC#N)ccc1/C=C(\NC(=O)/C=C/c1ccccc1)C(=O)Nc1ccccc1Cl | TGI | > 100 µM |
